Source of measurements: the RNAGym collection of RNA variant scans (doi:10.7554/elife.80360)

B1: Twister Ribozyme (parent)
chain: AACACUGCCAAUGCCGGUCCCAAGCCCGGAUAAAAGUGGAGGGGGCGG

Variants of: B1
measurement-protocol: self-cleavage, relative activity (ratio to wild type); higher = more cleavage; co-transcriptional
quantity: self-cleavage
Hey, just send me the number, nothing else.

Ask: Entry C8U G47U needs its self-cleavage filled in; supply it.
Reply: 0.345

Ask: Give self-cleavage for A22C G28A
Reply: 0.862

Ask: Return self-cleavage (reported value) for this variant: C5G A32G
Reply: 0.749

Ask: For the variant A23U A32U , report self-cleavage.
Reply: 0.494

Ask: Let me know recorded self-cleavage for A10U G44C , thanks.
Reply: 0.937

Ask: Tell us which self-cleavage value is on record for A11U G45U
Reply: 0.953

Ask: Note self-cleavage for the variant shown: G39A G45U
Reply: 0.231

Ask: Query self-cleavage for G28U A35C
Reply: 0.888

Ask: Provide one value: measured self-cleavage of C21A A30U
Reply: 0.152

Ask: Give the reported value of self-cleavage for this record: C19U C46U
Reply: 0.907

Ask: Return reported self-cleavage. Input variant: A33C G38A
Reply: 0.867

Ask: Report self-cleavage, nothing else, for this variant: C25U A32G
Reply: 0.804

Ask: Using known records, supply self-cleavage for U6A G43A
Reply: 0.223

Ask: State, in one line, measured self-cleavage of C26G A30C
Reply: 0.0641

Ask: Please give the documented self-cleavage of A30U G44U
Reply: 0.973

Ask: Specify reported self-cleavage for the variant shown: C26A G48U
Reply: 0.355

Ask: Identify measured self-cleavage corresponding to G29C C46A
Reply: 0.708

Ask: Determine from records and report self-cleavage for C8G G47U
Reply: 0.142

Ask: Answer with reported self-cleavage of A10C A32U
Reply: 0.892

Ask: Respond only with self-cleavage recorded for C9U C46A
Reply: 0.549

Ask: Consider the variant A34C G47U . State its measured self-cleavage.
Reply: 0.107

Ask: State its self-cleavage for this variant: C21A G48C
Reply: 0.171

Ask: # return recorded self-cleavage for entry A33G G44A
Reply: 0.79

Ask: Supply recorded self-cleavage for U31A G48C here.
Reply: 1.19

Ask: Give self-cleavage for the following variant: C14U G39A
Reply: 0.509

Ask: Give reported self-cleavage value for U12A A34U
Reply: 0.984

Ask: Dear colleague, please send me the reported self-cleavage for C3A G38A when you can.
Reply: 0.268

Ask: Supply self-cleavage value. Item: U6A U37C
Reply: 0.124

Ask: // fetch self-cleavage given entry C3A C21G
Reply: 0.0514

Ask: Please report the measured self-cleavage for G24C A34C
Reply: 0.0955

Ask: Please report self-cleavage for the following variant: U18G C27U
Reply: 0.0822

Ask: Give recorded self-cleavage. G17U A34C
Reply: 0.0829

Ask: Please report self-cleavage for the following variant: A23U G43C
Reply: 0.146

Ask: Read the entry C19U C25A and write its reported self-cleavage.
Reply: 0.113

Ask: Return the recorded self-cleavage value; entry: C3U C9G
Reply: 0.12

Ask: For the variant A1U C9A , give its measured self-cleavage value.
Reply: 0.0518

Ask: For A34C G38A , write its self-cleavage.
Reply: 0.232

Ask: Supply reported self-cleavage belonging to this variant: A1C A4G
Reply: 0.131

Ask: Return the recorded self-cleavage value; entry: U18G C46G
Reply: 0.0845

Ask: Annotate the variant G17C A22G with its measured self-cleavage.
Reply: 0.0562

Ask: Dear colleague, please send me the reported self-cleavage for A1C C20U when you can.
Reply: 0.187

Ask: Supply recorded self-cleavage for A32C G43U here.
Reply: 0.344

Ask: Supply measured self-cleavage of G17U C19A in your reply.
Reply: 0.0777

Ask: Supply self-cleavage value. Item: C19A C21A
Reply: 0.0702

Ask: Please look at this variant and report its self-cleavage: C9U C21G
Reply: 0.0888

Ask: Quick one: give measured self-cleavage for U12C C15G
Reply: 0.0964

Ask: Supply recorded self-cleavage for U12C C14G here.
Reply: 0.0887

Ask: Specify reported self-cleavage for the variant shown: G36U G47C
Reply: 0.198

Ask: Tell us which self-cleavage value is on record for C3A G36A
Reply: 0.0998

Ask: Give self-cleavage for the following variant: C9G U12G
Reply: 0.492

Ask: Report measured self-cleavage; entry is A33U G44C
Reply: 0.928

Ask: # return recorded self-cleavage for input C14A A23G
Reply: 0.525

Ask: # return recorded self-cleavage for input U6A A11U
Reply: 1.03

Ask: // Input: U6G U12A . Output its self-cleavage only.
Reply: 0.769

Ask: Note self-cleavage for the variant shown: A30U A33U
Reply: 0.873

Ask: Return self-cleavage (reported value) for this variant: A4G G28C
Reply: 0.529

Ask: Indicate the recorded self-cleavage value for this variant: A2C A34U
Reply: 0.0746

Ask: Given the variant G13A G47U , write its reported self-cleavage.
Reply: 0.446

Ask: Provide measured self-cleavage value, entry: G41A C46U
Reply: 0.612

Ask: Supply reported self-cleavage belonging to this variant: G39U G47U
Reply: 0.187

Ask: Return reported self-cleavage. Input variant: G29U A30U
Reply: 0.912

Ask: Please list self-cleavage recorded for the variant C14A C25G
Reply: 0.657

Ask: Give the reported value of self-cleavage for this record: A10C C25G
Reply: 0.31

Ask: State its self-cleavage for this variant: U37A G45A
Reply: 0.835

Ask: Provide one value: measured self-cleavage of G7U A33U
Reply: 0.109

Ask: State its self-cleavage: U18G G44A
Reply: 0.0959

Ask: Quote self-cleavage reported for G28A A40C please.
Reply: 0.163

Ask: Output measured self-cleavage for this item: U18A G43C
Reply: 0.144

Ask: Read the entry C21A U31C and write its reported self-cleavage.
Reply: 0.153

Ask: For A1C C15U , write its self-cleavage.
Reply: 0.153

Ask: Return the recorded self-cleavage value; entry: C3G G16A
Reply: 0.271

Ask: Please supply the value of reported self-cleavage for the item A1C A34C
Reply: 0.214

Ask: Give the measured self-cleavage for C19G C25A
Reply: 0.0881

Ask: Look up and state reported self-cleavage for C20U G36U
Reply: 0.0929

Ask: Supply measured self-cleavage of C21A A35U in your reply.
Reply: 0.104

Ask: Quickly give me recorded self-cleavage for C8U C19G
Reply: 0.0901

Ask: Identify measured self-cleavage associated with A4G A30U
Reply: 0.762

Ask: # return recorded self-cleavage for input A32U A35U
Reply: 1.13

Ask: Look up and report measured self-cleavage for this entry: C19A A35C
Reply: 0.313

Ask: Using known records, supply self-cleavage for C9U U12A
Reply: 0.794

Ask: Give the measured self-cleavage for A23C U37G
Reply: 0.0666

Ask: Supply recorded self-cleavage for G24A A40C here.
Reply: 0.105

Ask: Look up self-cleavage of C5G G29U and report it.
Reply: 0.584

Ask: Look up self-cleavage of A2C A35U and report it.
Reply: 0.0477

Ask: Give the reported self-cleavage for this variant. G17C C19G
Reply: 0.0591

Ask: Output measured self-cleavage for this item: A30U U37C
Reply: 0.72

Ask: Fill in reported self-cleavage for this entry: C19A G28C
Reply: 0.135

Ask: Please give the documented self-cleavage of A10C A22C
Reply: 0.993

Ask: Quickly give me recorded self-cleavage for G28U C46U
Reply: 0.922

Ask: Could you please provide reported self-cleavage for A22C C26A ? Thanks!
Reply: 0.46

Ask: Please look at this variant and report its self-cleavage: U31A G36A
Reply: 0.614
